The origin of these recorded values is ChEMBL document CHEMBL1201862.

Here, each record is paired with measured GI50 data.
tested on: SK-MEL-5; experiment: NCI tumour cell line growth inhibition, 48 h
Calls of active or inactive are those of the source. No stated cut-off is given here; in the data, active = GI50 up to about 1.1 µM and inactive = higher.

[[record]]
compound = "CCCCC(C)C(OC(=O)CC(CC(=O)O)C(=O)O)C(CC(C)CC(O)CCCCC(O)CC(O)C(C)N)OC(=O)CC(CC(=O)O)C(=O)O (centres undefined)"
system_name = "SK-MEL-5"
readout = "GI50"
endpoint_value = "> 100 µM (inactive)"

[[record]]
compound = "CCCCCCCN1C(=O)C(O)(c2ccc(C3(O)C(=O)N(CCCCCCC)c4ccccc43)s2)c2ccccc21 (centres undefined)"
system_name = "SK-MEL-5"
readout = "GI50"
endpoint_value = "1.79 µM (inactive)"

[[record]]
compound = "Cc1ccc(C2SCC(=O)N2NC(=O)c2ccncc2)s1 (centres undefined)"
system_name = "SK-MEL-5"
readout = "GI50"
endpoint_value = "> 100 µM (inactive)"


Now look at this entry.
Which value of GI50 has been reported for `CS/C(=N\C(=S)Nc1ccccc1)Nc1ccccc1` in the records? 6.01 µM (inactive)
